- target of assay: human A3 AR (Homo sapiens, UniProt P0DMS8)
- Construct: expressed in transfected cells; membranes
- Sequence (P0DMS8 whole entry): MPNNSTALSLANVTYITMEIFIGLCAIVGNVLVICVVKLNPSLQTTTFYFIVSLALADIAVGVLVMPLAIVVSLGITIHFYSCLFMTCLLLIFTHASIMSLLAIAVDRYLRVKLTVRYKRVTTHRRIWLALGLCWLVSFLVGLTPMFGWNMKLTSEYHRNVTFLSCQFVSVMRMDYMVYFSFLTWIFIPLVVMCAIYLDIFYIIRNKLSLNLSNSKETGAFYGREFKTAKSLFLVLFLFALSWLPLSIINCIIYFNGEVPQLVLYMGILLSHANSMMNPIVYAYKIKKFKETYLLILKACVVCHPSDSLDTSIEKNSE
- procedure text: Radioligand competition binding with 125I-ABA, membranes of HEK 293 cells stably expressing the receptor
- experimental setup: Ki derived from IC50
reported endpoint: Ki (nM)
Answers are plain numbers, in nM.

Fill in: Ki of Nc1nc(C#CCC2CCN(C(=O)Oc3ccccc3)CC2)nc2c1ncn2[C@@H]1O[C@H](C(=O)NC2CC2)C(O)[C@@H]1O (stereo partly shown) [Compound 1, reference compound] is ___ 34.1

====

- target of assay: human A1 AR (Homo sapiens, UniProt P30542)
- Construct: expressed in transfected cells; membranes
- Sequence (P30542 1-326): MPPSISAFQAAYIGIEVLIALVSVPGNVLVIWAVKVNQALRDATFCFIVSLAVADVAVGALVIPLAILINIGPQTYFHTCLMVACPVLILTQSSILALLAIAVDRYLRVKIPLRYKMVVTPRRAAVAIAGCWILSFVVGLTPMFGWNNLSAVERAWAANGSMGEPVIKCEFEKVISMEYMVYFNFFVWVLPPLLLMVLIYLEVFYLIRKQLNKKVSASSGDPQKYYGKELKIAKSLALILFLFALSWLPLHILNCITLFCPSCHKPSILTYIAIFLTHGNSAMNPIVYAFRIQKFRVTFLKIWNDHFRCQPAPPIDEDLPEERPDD
- procedure text: Radioligand competition binding with 125I-ABA, membranes of CHO K1 cells stably expressing the receptor
- experimental setup: Ki derived from IC50, class symbols
pKi: −log10 of the molar value.
Kindly state pKi for each of the entries shown.

1. Cc1ccc(OC(=O)N2CCC(CC#Cc3nc(N)c4ncn([C@@H]5O[C@H](C(=O)NC6CC6)[C@@H](O)[C@H]5O)c4n3)CC2)cc1C ... > 7.00
2. Cc1ccc(OC(=O)N2CCC(CC#Cc3nc(N)c4ncn([C@@H]5O[C@H](CO)[C@@H](O)[C@H]5O)c4n3)CC2)cc1C ... > 7.00

Please give pKi for each item listed below.
1. N=C(Oc1ccc(Cl)cc1)N1CCC(CC#Cc2nc(N)c3ncn([C@@H]4O[C@H](C(=O)NC5CC5)[C@@H](O)[C@H]4O)c3n2)CC1
2. COc1ccccc1OC(=O)N1CCC(CC#Cc2nc(N)c3ncn([C@@H]4O[C@H](CO)[C@@H](O)[C@H]4O)c3n2)CC1
3. Nc1nc(C#CCC2CCN(C(=O)Oc3ccc(F)c(F)c3)CC2)nc2c1ncn2[C@@H]1O[C@H](C(=O)NC2CC2)C(O)[C@@H]1O (stereo partly drawn)
4. N=C(Oc1ccc(F)cc1)N1CCC(CC#Cc2nc(N)c3ncn([C@@H]4O[C@H](C(=O)NC5CC5)[C@@H](O)[C@H]4O)c3n2)CC1
5. COC(=O)c1ccc(OC(=O)N2CCC(CC#Cc3nc(N)c4ncn([C@@H]5O[C@H](CO)[C@@H](O)[C@H]5O)c4n3)CC2)cc1
6. Nc1nc(C#CCC2CCN(C(=O)Oc3ccc(Br)cc3Br)CC2)nc2c1ncn2[C@@H]1O[C@H](C(=O)NC2CC2)C(O)[C@@H]1O (stereo partly drawn)
7. COc1ccc(OC(=O)N2CCC(CC#Cc3nc(N)c4ncn([C@@H]5O[C@H](C(=O)NC6CC6)C(O)[C@@H]5O)c4n3)CC2)cc1 (stereo partly drawn)

1. < 7.00
2. > 7.00
3. > 7.00
4. > 7.00
5. > 7.00
6. > 7.00
7. > 7.00

Please give pKi for each item listed below.
1. Nc1nc(C#CCC2CCN(C(=O)Oc3cccc(C(F)(F)F)c3)CC2)nc2c1ncn2[C@@H]1O[C@H](CO)C(O)[C@@H]1O (stereo partly drawn)
2. COC(=O)c1ccc(OC(=O)N2CCC(CC#Cc3nc(N)c4ncn([C@@H]5O[C@H](C(=O)NC6CC6)C(O)[C@@H]5O)c4n3)CC2)cc1 (stereo partly drawn)
3. Nc1nc(C#CCC2CCN(C(=O)Oc3ccc(F)cc3)CC2)nc2c1ncn2[C@@H]1O[C@H](C(=O)NC2CC2)C(O)[C@@H]1O (stereo partly drawn)
4. Nc1nc(C#CCC2CCN(C(=O)Oc3ccc(C(=O)O)cc3)CC2)nc2c1ncn2[C@@H]1O[C@H](C(=O)NC2CC2)C(O)[C@@H]1O (stereo partly drawn)

1: > 7.00; 2: > 7.00; 3: > 7.00; 4: < 7.00

Please give pKi for each item listed below.
1. CCNC(=O)[C@H]1O[C@@H](n2cnc3c(N)nc(C#CCC4CCN(C(=O)OCc5ccccc5)CC4)nc32)[C@@H](O)C1O (stereo partly drawn) [Compound 32, reference compound]
2. COc1ccccc1OC(=O)N1CCC(CC#Cc2nc(N)c3ncn([C@@H]4O[C@H](C(=O)NC5CC5)C(O)[C@@H]4O)c3n2)CC1 (stereo partly drawn)
3. CCNC(=O)[C@H]1O[C@@H](n2cnc3c(N)nc(CCCC4CCN(C(=O)Oc5ccc(NO)cc5)CC4)nc32)[C@@H](O)C1O (stereo partly drawn)
4. Cc1ccc(OC(=O)N2CCC(CCCc3nc(N)c4ncn([C@@H]5O[C@H](C(=O)NC6CC6)C(O)[C@@H]5O)c4n3)CC2)cc1 (stereo partly drawn)
5. CCNC(=O)[C@H]1O[C@@H](n2cnc3c(N)nc(C#CCC4CCN(C(=O)Oc5ccc(N)cc5)CC4)nc32)[C@@H](O)C1O (stereo partly drawn)

1: < 7.00; 2: > 7.00; 3: > 7.00; 4: < 7.00; 5: > 7.00

Please give pKi for each item listed below.
1. Nc1nc(C#CCC2CCN(C(=O)Nc3ccc(Cl)cc3)CC2)nc2c1ncn2[C@@H]1O[C@H](CO)C(O)[C@@H]1O (stereo partly drawn)
2. Nc1nc(C#CCC2CCN(C(=O)Oc3ccc(Cl)cc3)CC2)nc2c1ncn2[C@@H]1O[C@H](C(=O)NC2CC2)C(O)[C@@H]1O (stereo partly drawn)
3. CCNC(=O)[C@H]1O[C@@H](n2cnc3c(N)nc(C#CCC4CCN(C(=O)Oc5ccc(F)cc5)CC4)nc32)[C@@H](O)C1O (stereo partly drawn)
4. Nc1nc(C#CCC2CCN(C(=O)OCc3ccccc3)CC2)nc2c1ncn2[C@@H]1O[C@H](C(=O)NC2CC2)C(O)[C@@H]1O (stereo partly drawn) [Compound 2, reference compound]
5. Nc1nc(C#CCC2CCN(C(=O)OCCOCc3ccccc3)CC2)nc2c1ncn2[C@@H]1O[C@H](C(=O)NC2CC2)C(O)[C@@H]1O (stereo partly drawn)

> 7.00
> 7.00
> 7.00
> 7.00
> 7.00

Fill in: pKi of Nc1nc(C#CCC2CCN(C(=O)Oc3ccc(Cl)c(Cl)c3)CC2)nc2c1ncn2[C@@H]1O[C@H](C(=O)NC2CC2)C(O)[C@@H]1O (stereo partly drawn) is ___ > 7.00
